Test system: MOLM-13 AML cells
Test: AML cell killing with NK cells, Annexin V viable cell count at 72 h (IC50 and Chou-Talalay synergy)
Assay type: cell-based
Details: Homo sapiens; MOLM-13, monotherapy, NK cells ratio 1:1; read-out: IC50
readout name: pIC50
// field semantics: pIC50 = negative decimal log of concentration (mol/L)

QUERY: Request: pIC50, test system MOLM-13 AML cells, entry CC1(C)CCC(CN2CCN(c3ccc(C(=O)NS(=O)(=O)c4ccc(NCC5CCOCC5)c([N+](=O)[O-])c4)c(Oc4cnc5[nH]ccc5c4)c3)CC2)=C(c2ccc(Cl)cc2)C1 [venetoclax]
RESULT: 9.38

FYI, the data here is from patent US11712468B2.
